testReadout: melting point

Req: May I ask what melting point has been recorded for CC(=NN=C1SC(=Cc2cn(-c3ccccc3)nc2-c2ccc(Cl)cc2)C(=O)N1c1ccccc1)c1nc2ccccc2[nH]1 [Compound 5n] ?
Resp: > 300 °C

Req: May I ask what melting point has been recorded for COc1ccc(-c2nn(-c3ccccc3)cc2C=C2SC(=NN=C(C)c3nc4ccccc4[nH]3)N(c3ccccc3)C2=O)cc1 [Compound 5o] ?
Resp: > 300 °C

Req: May I ask what melting point has been recorded for CC(=NN=C1SC(=Cc2cn(-c3ccccc3)nc2-c2ccccc2)C(=O)N1c1ccccc1)c1nc2ccccc2[nH]1 [Compound 5m] ?
Resp: > 300 °C

Req: May I ask what melting point has been recorded for COc1ccc(-c2nn(-c3ccccc3)cc2C=C2SC(=NN=C(C)c3nc4ccccc4[nH]3)N(C3CCCCC3)C2=O)cc1 [Compound 5x] ?
Resp: 215 to 217 °C

Req: May I ask what melting point has been recorded for COc1ccc(N2C(=O)C(=Cc3cn(-c4ccccc4)nc3-c3ccc(Cl)cc3)SC2=NN=C(C)c2cc3ccccc3o2)cc1 [Compound 5h] ?
Resp: 280 to 282 °C
